- Target or system: Stromelysin-1 (Homo sapiens)
- Sequence (P08254 whole entry): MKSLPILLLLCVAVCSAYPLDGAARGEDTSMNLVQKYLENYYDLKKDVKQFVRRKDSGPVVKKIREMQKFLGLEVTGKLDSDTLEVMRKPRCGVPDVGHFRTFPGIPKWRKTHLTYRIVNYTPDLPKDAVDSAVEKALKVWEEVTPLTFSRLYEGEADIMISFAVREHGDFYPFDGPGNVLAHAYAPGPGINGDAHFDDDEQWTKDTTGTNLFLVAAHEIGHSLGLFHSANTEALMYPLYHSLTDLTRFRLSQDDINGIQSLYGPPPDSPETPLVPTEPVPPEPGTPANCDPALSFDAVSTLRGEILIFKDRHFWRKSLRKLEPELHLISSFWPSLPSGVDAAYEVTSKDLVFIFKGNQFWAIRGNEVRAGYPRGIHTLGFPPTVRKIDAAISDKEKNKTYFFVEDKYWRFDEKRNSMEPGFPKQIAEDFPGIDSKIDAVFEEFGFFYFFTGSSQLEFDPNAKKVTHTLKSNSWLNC
- Test name: In vitro inhibitory activity against matrix metalloprotease -3 (stromelysin)
// classify: if (IC50 < 10 nM) Met else Not met

Dear colleague, could you confirm whether IC50 of COCCOc1ccc(S(=O)(=O)N2C[C@@H](N3C(=O)CN(C)C3=O)C[C@@H]2C(=O)NO)cc1 falls below 10 nM? Thanks. Not met

Dear colleague, could you confirm whether IC50 of CNC(=O)N[C@H]1C[C@H](C(=O)NO)N(S(=O)(=O)c2ccc(OC)cc2)C1 falls below 10 nM? Thanks. Not met

Dear colleague, could you confirm whether IC50 of COc1ccc(S(=O)(=O)N2C[C@@H](N3C(=O)CN(C)C3=O)C[C@@H]2C(=O)NO)cc1 falls below 10 nM? Thanks. Met

Dear colleague, could you confirm whether IC50 of CCCCOc1ccc(S(=O)(=O)N2C[C@@H](N3CCCS3(=O)=O)C[C@@H]2C(=O)NO)cc1 falls below 10 nM? Thanks. Not met

Dear colleague, could you confirm whether IC50 of CCCCCc1ccc(S(=O)(=O)N2C[C@@H](N3CCOCC3)C[C@@H]2C(=O)NO)cc1 falls below 10 nM? Thanks. Not met

Dear colleague, could you confirm whether IC50 of COc1ccc(S(=O)(=O)N2C[C@@H](NCCc3ccccc3)C[C@@H]2C(=O)NO)cc1 falls below 10 nM? Thanks. Not met

Dear colleague, could you confirm whether IC50 of COc1ccc(S(=O)(=O)N2C[C@@H](NC(=O)[C@H](C)OCc3ccccc3)C[C@@H]2C(=O)NO)cc1 falls below 10 nM? Thanks. Met

Dear colleague, could you confirm whether IC50 of COc1ccc(S(=O)(=O)N2C[C@@H](N3CCCS3(=O)=O)C[C@@H]2C(=O)NO)cc1 falls below 10 nM? Thanks. Not met

Dear colleague, could you confirm whether IC50 of O=C(NO)[C@H]1C[C@H](N2CCCC2)CN1S(=O)(=O)c1ccc(Oc2ccc(F)cc2)cc1 falls below 10 nM? Thanks. Met

Dear colleague, could you confirm whether IC50 of CCCN1CC(=O)N([C@H]2C[C@H](C(=O)NO)N(S(=O)(=O)c3ccc(OCCOC)cc3)C2)C1=O falls below 10 nM? Thanks. Not met

Dear colleague, could you confirm whether IC50 of C=CCN1CC(=O)N([C@H]2C[C@H](C(=O)NO)N(S(=O)(=O)c3ccc(OCCCC)cc3)C2)C1=O falls below 10 nM? Thanks. Met

Dear colleague, could you confirm whether IC50 of CS(=O)(=O)N[C@H]1C[C@H](C(=O)NO)N(S(=O)(=O)c2ccc(Oc3ccncc3)cc2)C1 falls below 10 nM? Thanks. Not met

Dear colleague, could you confirm whether IC50 of CCCCCc1ccc(S(=O)(=O)N2C[C@@H](N3CCCCC3)C[C@@H]2C(=O)NO)cc1 falls below 10 nM? Thanks. Not met

Dear colleague, could you confirm whether IC50 of O=C(NO)[C@H]1C[C@H](N2CCCCC2)CN1S(=O)(=O)c1ccc(Oc2ccccc2)cc1 falls below 10 nM? Thanks. Met

Dear colleague, could you confirm whether IC50 of CCCCOc1ccc(S(=O)(=O)N2C[C@@H](N3C(=O)NC(C)(C)C3=O)C[C@@H]2C(=O)NO)cc1 falls below 10 nM? Thanks. Met
